Biological target: h-T21A hURAT1 point mutant (Homo sapiens, UniProt Q96S37, T21A)
Sequence (Q96S37 1-553 T21A): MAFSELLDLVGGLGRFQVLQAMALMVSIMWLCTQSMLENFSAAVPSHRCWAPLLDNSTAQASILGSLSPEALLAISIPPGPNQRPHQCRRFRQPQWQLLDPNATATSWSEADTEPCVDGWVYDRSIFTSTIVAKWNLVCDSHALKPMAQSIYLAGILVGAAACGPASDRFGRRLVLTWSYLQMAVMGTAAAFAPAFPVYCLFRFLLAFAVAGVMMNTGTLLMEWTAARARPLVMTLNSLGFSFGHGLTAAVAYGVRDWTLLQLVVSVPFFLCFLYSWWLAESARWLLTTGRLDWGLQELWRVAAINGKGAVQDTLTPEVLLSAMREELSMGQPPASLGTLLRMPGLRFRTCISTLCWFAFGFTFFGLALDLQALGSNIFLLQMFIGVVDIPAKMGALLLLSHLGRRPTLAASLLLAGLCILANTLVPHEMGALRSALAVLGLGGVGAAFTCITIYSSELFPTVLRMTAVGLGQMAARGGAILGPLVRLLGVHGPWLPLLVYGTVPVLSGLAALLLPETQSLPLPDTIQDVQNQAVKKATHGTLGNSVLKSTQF
Test: URAT1 uric acid transport activity assay
Conditions: HEPES pH 7.3, 100 μM 14C-uric acid
reported_metric: IC50 (µM)
Reply with just the number (in µM).

*Q* Give IC50 for this entry on h-T21A hURAT1 point mutant (Homo sapiens, UniProt Q96S37, T21A): O=C1C(CC[S+]([O-])c2ccccc2)C(=O)N(c2ccccc2)N1c1ccccc1 (stereo not shown)
*A* 12

// provenance: paper PMC5054527
